I'd appreciate it if you could supply pIC50 values for the items below.
# target system: full length recombinant Pim-1 protein (Homo sapiens)
# Construct: by full length recombinant Pim-1, Pim-2, or Pim-3 protein; hexahistidine tag followed by a thrombin cleavage site (N); made in house; host or cells: Sf9 (baculovirus) or E. coli (pET28)
# Sequence (P11309 whole entry): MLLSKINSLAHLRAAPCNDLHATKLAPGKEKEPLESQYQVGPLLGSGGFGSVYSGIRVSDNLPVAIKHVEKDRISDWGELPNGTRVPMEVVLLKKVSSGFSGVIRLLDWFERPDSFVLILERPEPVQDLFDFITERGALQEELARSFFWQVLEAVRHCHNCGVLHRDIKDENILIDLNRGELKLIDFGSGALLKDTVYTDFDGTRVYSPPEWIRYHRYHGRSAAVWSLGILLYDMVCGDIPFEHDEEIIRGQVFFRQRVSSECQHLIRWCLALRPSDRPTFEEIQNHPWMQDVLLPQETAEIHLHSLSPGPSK
# test: Pim-1 enzyme assay (HTRF, phosphorylation of biotinylated-BAD (S112) peptide)
# Type: biochemical
# condition summary: read-out: Pim_1_IC50
The value called pIC50 is obtained by taking minus log10 of the concentration in mol/L.

Problem: Entry CC1CCCCN1c1nc(-c2ccc3[nH]cc(-c4cncc(O[C@@H]5CCCNC5)n4)c3c2)cs1 (stereo partly drawn) [Example 501] has what pIC50?
Result: 7.04

Problem: How about COc1cc(N2CCC(N)CC2)nc(-c2c[nH]c3ccc(-c4c(F)cccc4F)cc23)n1 [Example 563] ?
Result: 7.06

Problem: How about CC1CNCC(Oc2nc(O)cc(-c3n[nH]c4ccc(-c5c(F)cccc5F)cc34)n2)C1 (single isomer, unassigned) [Example 569] ?
Result: 9.00

Problem: How about CC(C)OC(=O)c1ccc2[nH]nc(-c3cncc(O[C@@H]4CCCNC4)n3)c2c1 [Example 477] ?
Result: 8.10

Problem: How about CN(C)c1nc(-c2n[nH]c3ccc(-c4c(F)cccc4F)cc23)cc(=O)[nH]1 [Example 526] ?
Result: 7.47

Problem: How about Nc1ccc(Oc2ncccc2-c2ccc3[nH]cc(-c4cncc(O[C@@H]5CCCNC5)n4)c3c2)cc1 [Example 337] ?
Result: 7.25

The values you see were collected from patent US9090593B2.
